// cross-source set; read-out = IC50; system = Stromelysin-1 (Homo sapiens, UniProt P08254)
recorded-metric: IC50 (nM)

molecule | target-or-test-system | recorded-metric | unit-string | measured-value
CC(C)C[C@H](NC(=O)[C@@H](CC(=O)NO)C1CCCCC1)c1nc(-c2ccccc2)c[nH]1 | Stromelysin-1 (Homo sapiens, UniProt P08254) | IC50 | nM | 5900

(a) O=C(NO)C(CCCN1C(=O)c2ccccc2C1=O)COc1ccc(-c2ccccc2)cc1 (centres undefined)
(b) CC(C)[C@@H](NS(=O)(=O)c1ccc(-c2ccc(Br)cc2)cc1)C(=O)NO
(c) CCn1ccnc1[C@]1(CNC(=O)c2cc3cc(C(F)(F)F)ccc3o2)NC(=O)NC1=O
Task: Ascending by IC50, please: list the molecules accordingly. # respond with the labels, arranged in the requested order
Result: b, a, c
(b: 8 nM, a: 313 nM, c: 60000 nM)
